From: the nanobody polyreactivity screen of Harvey et al. (2022)

Test Summary: yeast display, Sf9 membrane polyspecificity reagent, FACS + sequencing; frameworks hold sequencing errors
Readout Type: polyreactivity (PSR sort gate)

- Seq Text: "QVQLVESGAGLVQAGGSLRLSCAASGRIFVYNTMGWYRQAPGKEREFVAAITRSGGSTTYADSVKGRFTISRANAKNTVYLQRNSLKPEDTAVYYCAAGPFISYWVSRFGYWGQGTQVTVSS"
  polyreactivity (PSR sort gate): "high polyreactivity"
- Seq Text: "QVQLVESGGGLVQAGGILRLSCAASGRIFRGYAMGWYIQAPAKERELVASIDWNGGRTYYADSEKGRFTISRDNAKNTVYLQMNSLKPEDTAVYYCAVLPYRTLYNYYYWGQGTQVTVSS"
  polyreactivity (PSR sort gate): "high polyreactivity"
- Seq Text: "QVQLVESGGGLVQAGGSLRLSCAASGRIFGWNAMGWYRQAPGKERELVATITDGTSTNYADSVKGRFTISRDNAKNTVYLQMYSLKPVDTAVYYCAKRVVTSLYKPDGVKYDYWGQGTQVTVSS"
  polyreactivity (PSR sort gate): "high polyreactivity"
- Seq Text: "QVQLGESGGGLVQAGGSLRLSCAASGLILYGYAMGLYRPAPGKERELVATITIGGSTYYADSVKGRFTISRDNAKNTVYLQMNRLNPEDTAVYYCAAEDTLAGSVARFGEYDYWGQGSQVTVSS"
  polyreactivity (PSR sort gate): "low polyreactivity"

Please give the documented polyreactivity (PSR sort gate) of QVQHVESGGGIVQAGGSLRLSCAASGITFSRKAMGRYRQATGKERELVATITSGGSTNYADSVKGRFTISRDNAKNTVYLQMNRLKPEDTAVYYCNAVWNTFISGRSYDYWGQGTQVTVSS
low polyreactivity

###

Test Summary: yeast display, Sf9 membrane polyspecificity reagent, FACS + sequencing; frameworks hold sequencing errors

- Seq Text: "QVQLVESGGGLVQAGGSLRLICAASGRILYTYAMGWYRQAPGKERELVAGISRGGRTYYADSVKGRFTISRDNAKNTVYLQMNSLKPEDTAVYYCAARLQYGIQYRYDYWGQGTLVTVSS"
  polyreactivity (PSR sort gate): "high polyreactivity"
- Seq Text: "QVQLVESGGGLVQAGGSLRLSCAASGIIFTNYAMGWYRQAPGKERELVAAISSSSGTTYYADSVKGRFTISRDNAKNTDYLQMNSLKPEDTALYYCNAGRSWRRTHYDYWVQGTQVTVSS"
  polyreactivity (PSR sort gate): "high polyreactivity"
- Seq Text: "QVQLVESGGGLVQAGCSLRISCAASGRTFSVYTMGWYRQAPGKERELVAAIRGRGGSTYYADSVKGRFTISRDNAKIPVYLQMNSLKPEDTAVYYCAARASIFGATFDYWGQGTQVTVSS"
  polyreactivity (PSR sort gate): "high polyreactivity"

###

Test Summary: yeast display, Sf9 membrane polyspecificity reagent, FACS + sequencing; frameworks hold sequencing errors
Readout Type: polyreactivity (PSR sort gate)

- Seq Text: "QVQLVESGGGLDQAGGSLPLSCAASGNTFYPNAMGWYRQAPGKERELVAAITTSGGTTYYADSVKGRFTISRDNANYTVYLQMNSLKPEDTAVYYCAAYWSRDKYDYWGQGTQVTVSS"
  polyreactivity (PSR sort gate): "low polyreactivity"
- Seq Text: "QVQLEESGGGLVQAGGSLRLSCAASGRTFDVYAMGWYRQAPGKEREFVAAINWSSSSTYYADSVKGRFTISRDNAKNTVYLQMNSLKPEDTAVYYCAARYKRYTRFDYWGQGTQVTVSS"
  polyreactivity (PSR sort gate): "high polyreactivity"
- Seq Text: "QVQLVESGGGLVQAGGSLRLSCAASGRIFDRYAMGWYRQAPGKEMELVAAISSDANTYYADSVKGRFTISRDNAKNTVYLQMNSLKPEDTAVYYCAKVVKGDHPYDYWGQGTQVTVSS"
  polyreactivity (PSR sort gate): "high polyreactivity"
- Seq Text: "QVQLVESGGGLVQAGGSLRLSCAASGLTFTYYAMGWYRQAPGKERELVAAISSSGSDTYYADSVKGRFTISRDNAKNTVYLQMNSLKPEDTAVYYCAAVLTALSPDFEYEYWGQGTQVTVSS"
  polyreactivity (PSR sort gate): "low polyreactivity"
- Seq Text: "QVQLVESGGGLVQAGGSLRLSCAASGFTFSWYAMGWYRQAPGKERELVAAITSGGSTYYADSVKGRFTLSRDNAKNTVYLQMISLKPEDTAVYYCNKAFASIAPVWSGYDFWGQGTQVTVSS"
  polyreactivity (PSR sort gate): "low polyreactivity"
- Seq Text: "QVQLVESGGGLVQAGVSLRLSCAASGSIFRWNAMGWYRQAPGKERELVAAITGSGGSTYYADSVKGRFTISRDNAKNTVYLQMNSLKPEDTAVYYCAAKSPRILLDYWGQGTQVTVSS"
  polyreactivity (PSR sort gate): "low polyreactivity"
- Seq Text: "QVQLVESGGGLVQAGGSLRLSCAASGRIFRGYAMGLYRQAPGKEREFVAAISWSGGDTYYADSVKGRFTISRDTAKNTVYLQMNSLKPEDTAVYYCATEYRLIPGPFVWPYDYWGQGTQVTVSS"
  polyreactivity (PSR sort gate): "high polyreactivity"
- Seq Text: "QVQLVESGGGLVQAGGSLRLSCAASGRIFPGNAMGWYRQAPGKESELVAAISKSGGSTYYADSVKGRFTISRDNAKNTVYLQMNSLKPEDTAVYYCAKLYYPVSDQYDYYYWGQGTQVTVSS"
  polyreactivity (PSR sort gate): "low polyreactivity"
- Seq Text: "QVQLVESGGGLVQAGGSLRLSCAASGSTFYTYTMGWYRQAPGKERELVAAISSRGVSTYYADSVKGRFTISRDNAKNTVYLQMNSLKPEDTAVYYCAVSRIVDFGQKMYYWGQGTQVTVSS"
  polyreactivity (PSR sort gate): "high polyreactivity"
- Seq Text: "QVQLVESGGCIVQAGGSLRLSCAASGRIFKLYAMGWYRQAPGKERELVAAITTSGGSTYYADSVKGRFTISRDNAKNTVSLEMNSLIPEDTAGYYCNARAVRYPFTGNYWGQGTQVTVSS"
  polyreactivity (PSR sort gate): "high polyreactivity"

Please give the documented polyreactivity (PSR sort gate) of QVQLVESGGGLDQAGGSLPLTCAASGRTFWGNAMGWYRQAPGQERELVAGISKSGGTTYADSVKGRFTISRDNAKNTVYLEMNRLKPEDTAVYYCAAGGWWWTIPYEYWGQGTKVTVSS
high polyreactivity
